System: MDA-MB-231 cells
Assay overview: MTT assay, inhibition of proliferation of MDA-MB-231 cells
Type: cell-based, human
Condition context: Homo sapiens, MTT reduction, 24 h
pIC50: −log10 of the molar value.
Measurement name: pIC50

Prompt: API: value(readout=pIC50, system=MDA-MB-231 cells) for record O=C(O)CCCCCCCCCCCCCCCNC(=O)Nc1ccc(Cl)c(Cl)c1
Response: 5.92

Prompt: API: value(readout=pIC50, system=MDA-MB-231 cells) for record CCOC(=O)CCCCCCCCCCCCCCCNC(=O)NCCc1ccccc1
Response: 5.95

Prompt: API: value(readout=pIC50, system=MDA-MB-231 cells) for record CC(C)(C)NC(=O)NCCCCCCCCCCCCCCCC(=O)O
Response: 5.91

P: CCOC(=O)CCCCCCCCCCCCCCCNC(=O)NCc1ccccc1
Q: CCNC(=O)NCCCCCCCCCCCCCCCC(=O)O
Prompt: Kindly compare P with Q and tell me which has the lower pIC50 figure. Lab log: write the label of the selected item as the result.
Response: Q
